target: human recombinant lysosomal α-glucosidase GAA (Myozyme) (Homo sapiens); construct: purchased Genzyme; test: fluorogenic substrate (4MU-α-D-glucopyranoside) assay on rhGAA; assay type: biochemical; conditions: Table S2; 4-MU alpha glucoside substrate; listed as 23; read-out: IC50 on rhGAA
property-measured: IC50 (nM)
Answer in nM, number only, no unit symbol.

Query block: Answer with the recorded IC50 for the compound listed here: CCCCCCCOCCCCCN1C[C@H](O)[C@@H](O)[C@H](O)[C@H]1CO [#ID 23]
Result block: 290

----------
biological target: recombinant human GAA (rhGAA, Myozyme) (Homo sapiens, UniProt P10253); test: competitive FluoPol-ABPP assay on rhGAA with TAMRA-ABP II; settings: competitive FluoPol-ABPP; rhGAA 80 nM, ABP II 80 nM; pH 5.0; read-out: apparent IC50 (GAA);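 further: fluorescence polarization read at 540 nm excitation and 590 nm emission, background-corrected, normalized to uninhibited probe labelling as 100% and excess cyclosulfate as 0%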
property-measured: pIC50
API: returns pIC50 as number; meaning -log10 of concentration in mol/L.

Query block: Give pIC50 only, for O=S1(=O)O[C@@H]2[C@H](O)[C@@H](O)[C@H](O)[C@@H](CO)[C@@H]2O1 [Compound 12, 1,6-epi-cyclophellitol cyclosulfate, reference compound] , using recombinant human GAA (rhGAA, Myozyme) (Homo sapiens, UniProt P10253) data.
Result block: 7.48
